Tested on: SK-MEL-28 melanoma
Experiment: NCI tumour cell line growth inhibition, 48 h
measure.name: TGI (µM)
One number for each entry, in µM.

Solved cases (4 shown):
[[record]]
compound = "CSc1ccc(-c2cc(-c3ccc(NC(=O)CCCN4CCCC4)cc3)nc(-c3ccc(NC(=O)CCCN4CCCC4)cc3)c2)cc1"
result_value = 20.7

[[record]]
compound = "Fc1ccc(C2CC(c3cccc(Nc4ccncc4)c3)=NN2c2cc(Cl)cc(Cl)c2)cc1 (stereo not given)"
result_value = 3.31

[[record]]
compound = "CCOC(=O)c1c2c(n(-c3ccc(OC)cc3)c1C)C(=O)C(=O)c1ccccc1-2"
result_value = 3.89

[[record]]
compound = "O=Nc1c(-c2cccc([N+](=O)[O-])c2)nc2cnccn12"
result_value = 50.3


Now for another entry.
OCCCCC#Cc1ccccc1C#Cc1ccccc1F has a reported TGI of 72.9

---

Tested on: CCRF-CEM leukemia
Test: NCI tumour cell line growth inhibition, 48 h
Where a SMILES comes first, the peptide text is derived from it. [ ]: non-standard residue; d: D form. The star is where a group is joined. ξ: configuration not given here. ξD = NC(CC(=O)O)C(=O)O; Ac3c = NC1(C(=O)O)CC1; Boc = CC(C)(C)OC(=O)*; OBn = c1ccc(CO*)cc1
Kindly state TGI for each of the entries shown.

Before answering, review these 5 worked examples.
[[record]]
molecule = "O=C(Nc1ccc(Cl)cc1)c1cc2c(cc1O)[nH]c1ccccc12"
test_target = "CCRF-CEM leukemia"
measure_name = "TGI"
result_value = "> 100 µM"

[[record]]
molecule = "COC(=O)C1(NC(=O)C(CC(=O)OCc2ccccc2)NC(=O)OC(C)(C)C)CC1 (stereo not drawn) (Boc-[ξD](OBn)-[Ac3c]-OMe)"
test_target = "CCRF-CEM leukemia"
measure_name = "TGI"
result_value = "> 100 µM"

[[record]]
molecule = "O=c1c2ccccc2n2nnc3ccc(NCCCNCCNCCCNc4ccc5nnn6c7ccccc7c(=O)c4c56)c1c32"
test_target = "CCRF-CEM leukemia"
measure_name = "TGI"
result_value = "> 50 µM"

[[record]]
molecule = "COC(=O)/C=C\\C(C#N)(C#N)N=Cc1ccc(C)s1"
test_target = "CCRF-CEM leukemia"
measure_name = "TGI"
result_value = "1.64 µM"

[[record]]
molecule = "COc1ccc(-c2nc(-c3cc4ccccc4oc3=O)cs2)cc1"
test_target = "CCRF-CEM leukemia"
measure_name = "TGI"
result_value = "> 100 µM"


Each molecule below has a recorded value; state its TGI.
1. COc1cc(N=Nc2ccccc2)cc(/C=N\[N-]C(N)=S)c1[O-].COc1cc(N=Nc2ccccc2)cc(/C=N\[N-]C(N)=S)c1[O-].[Fe+4]
2. CO/C(=N\N=C\c1ccc(Cl)cc1Cl)c1ccncc1
3. CCN(CC)C(=S)N/N=C/c1ccccn1

["92.6 µM", "> 10 µM", "> 100 µM"]

# batch: return TGI for each of the 8 molecules below
1. O=C(O)CNS(=O)(=O)c1ccc(NC(=O)c2ccc(F)cc2)cc1
2. C=CC(C)(C)N[C@@H](C(=O)N1CCC[C@H]1c1nc(-c2nc(C(=O)OCC=C(C)C)c(C)o2)c(C)o1)C(C)C
3. CC1=C(C(=O)Nc2ccc3[nH]ncc3c2)C(c2ccc(F)cc2)NC(=O)N1 (stereo not drawn)
4. Cn1cc(NC(=O)c2cc(NC(=O)Nc3cc(C(=O)Nc4cc(C(=O)NCCC(=N)N)n(C)c4)n(C)c3)cn2C)cc1C(=O)NCCC(=N)N
5. N/N=C1/C(=N/O)CCc2nonc21
6. Cc1ccc(S(=O)(=O)NC(=O)NCCC(=O)O)cc1
7. N#Cc1cccc(C(=O)c2cnn(-c3ccc(F)cc3)c2N)c1
8. N=S(=O)(c1ccccc1)c1ccccc1[N+](=O)[O-] (stereo not drawn)

> 100 µM
41.8 µM
> 25 µM
77 µM
> 100 µM
> 100 µM
> 25 µM
> 100 µM

---

System: UACC-257 melanoma
Assay: NCI tumour cell line growth inhibition, 48 h
For each record, write down the corresponding TGI.

Use the examples below as a reference point.
[[record]]
compound = "Cn1c(-c2ccc[se]2)ccc1-c1ccc(CO)[se]1"
result_value = "0.102 µM"

[[record]]
compound = "CCN(CC)c1ccc(N=C2C=CC(=O)c3ncccc32)c(C)c1"
result_value = "15 µM"

[[record]]
compound = "COc1cc(/C=C2\\N=C(c3ccccc3)N(/N=C3\\C(=O)Nc4ccccc43)C2=O)cc(OC)c1OC"
result_value = "> 100 µM"


# batch size: 4; output TGI per entry
1. CS(=O)(=O)N(CCC#N)c1ccc(/C=N/NC(=O)CC(=O)Nc2cccc(Cl)c2)cc1
2. NC(=O)C(Br)CBr (stereo unspecified)
3. CN(C)c1ccc(/C=C/C(=O)C(C)(C)C)cc1Br
4. CC(=O)NC1=C(C)C(=O)c2c(nc3n2CCC3O)C1=O (stereo unspecified)

["> 100 µM", "3.27 µM", "61.9 µM", "> 59.9 µM"]

Hey, can you go through the list below and give me TGI for every item?
1. CNC(=O)c1c(NC(=O)c2cccc(C(F)(F)F)c2)sc2c1CCC(=O)C2
2. NCCNCCCCCCNC(=O)c1cccc2cc3ccccc3nc12
3. C[N+](C)([O-])CCCNc1c2ccccc2nc2cccc([N+](=O)[O-])c12
4. c1cc(C[S+]2CCCC2)ccc1C[S+]1CCCC1
5. C[C@H](CC[C@@H](O)C(C)(C)O)[C@H]1CC[C@@]2(C)[C@@H]3CC=C4[C@@H](CC[C@H](O)C4(C)C)[C@]3(C)C(=O)C[C@]12C

7.3 µM
15.2 µM
2.25 µM
> 100 µM
> 50 µM

Record TGI for all entries; do not skip any.
1. COc1cc(C(=O)/C=C/c2c(-c3ccc(F)cc3)nc3sc(C)cn23)cc(OC)c1OC
2. CSc1ccc(-c2cc(-c3ccc(NC(=O)CCCN4CCCC4)cc3)nc(-c3ccc(NC(=O)CCCN4CCCC4)cc3)c2)cc1
3. Nc1ccc(N=Nc2ccccc2)c(N)n1
4. CCOC(=O)C1=C(C)C(C(=O)OC)/C(=C/c2cccc3cccnc23)C1=O (stereo unspecified)
5. C=CCN(c1cc(OCc2ccccc2)c(NC(C)=O)cc1[N+](=O)[O-])S(C)(=O)=O

> 100 µM
25.2 µM
> 100 µM
> 10 µM
> 100 µM

---

Tested on: UO-31 renal
Assay: NCI tumour cell line growth inhibition, 48 h; in the data active means GI50 below about 0.43 µM; inactive means the rest
Write down the outcome that applies. Available outcomes: active, inactive

[[record]]
molecule = "C=C1C(=O)O[C@H]2[C@H]1CC/C(CNC(=O)/C=C/c1cccc(OC)c1)=C\\CC[C@@]1(C)O[C@@H]21"
discrete_label = "inactive"


What did this assay record as the result for CNc1nc(C)c(-c2nc(Nc3cccc(S(N)(=O)=O)c3)ncc2F)s1 ?
active

Identify the outcome logged in this assay for the molecule shown: NS(=O)(=O)c1ccc(C2C3=C(CCCC3=O)OC3=C2C(=O)c2ccccc2C3=O)cc1 (stereo unspecified)
inactive

Test call for this molecule, please: CN(C)CCCNc1c2ccccc2nc2cccc([N+](=O)[O-])c12
active

Please let me know the test result on file for c1cc(C2CCCCC2)ccc1OCCCCCCN1CCNCC1 .
inactive

---

System: NCI-H226 lung
Assay: NCI tumour cell line growth inhibition, 48 h; in the data active = GI50 below about 0.43 µM; inactive = the rest
In this exercise, the only acceptable responses are active, inactive

Reference set, count: 3
[[record]]
molecule = "OCc1cccc(-c2ccc3ncc(-c4nc(NC5CC5)ncc4F)n3c2)c1"
test_target = "NCI-H226 lung"
discrete_label = "active"

[[record]]
molecule = "NS(=O)(=O)c1ccc(C2C3=C(CCCC3=O)OC3=C2C(=O)c2ccccc2C3=O)cc1 (stereo not given)"
test_target = "NCI-H226 lung"
discrete_label = "inactive"

[[record]]
molecule = "COc1ccc(C2=CC(c3cc(OC)c(OC)c(OC)c3)NC(=O)N2)cc1OC (stereo not given)"
test_target = "NCI-H226 lung"
discrete_label = "inactive"


Each molecule tested received a call. Report the one for O=CN1N=C(c2ccc(Nc3ccnc4cc(Cl)ccc34)cc2)CC1c1ccccc1 (stereo not given) .
inactive

Would you mind telling me which call this test gave O=C(Nc1ncc(Cc2ccccc2)s1)c1ccc2c(c1)OCCCO2 ?
inactive

---

System: SK-MEL-5 melanoma
Test: NCI tumour cell line growth inhibition, 48 h
measure.name: TGI (µM)
One number for each entry, in µM.

Here are 8 compounds together with their reported answers.
[[record]]
compound = "CCN(CC)CCOc1ccc(Nc2ncc3cc(-c4c(Cl)cccc4Cl)c(=O)n(CCOC)c3n2)cc1"
measure_name = "TGI"
result_value = 5.94

[[record]]
compound = "O=C(Nc1ncc(Cc2ccccc2)s1)c1ccc2c(c1)OCCCO2"
measure_name = "TGI"
result_value = 1.96

[[record]]
compound = "CCCCCCOc1ccc(/C=N/NC(N)=S)cc1"
measure_name = "TGI"
result_value = 20.8

[[record]]
compound = "NC(N)=N/N=C/c1c(-c2cccs2)nc2sccn12"
measure_name = "TGI"
result_value = 26.5

[[record]]
compound = "O=C(c1ccccc1)c1c(C(F)(F)F)n([O-])c2cc(Cl)c(Cl)cc2[n+]1=O"
measure_name = "TGI"
result_value = 5.13

[[record]]
compound = "CCN(CC)CC(=O)/C=C/c1ccc(C)cc1"
measure_name = "TGI"
result_value = 33.1

[[record]]
compound = "CCCn1c(=O)c2ccccc2[n+]2c(-c3ccc([N+](=O)[O-])cc3)csc12"
measure_name = "TGI"
result_value = 45.7

[[record]]
compound = "C=C1C(=O)O[C@H]2[C@H]1CC/C(CNS(=O)(=O)c1ccc3ccccc3c1)=C\\CC[C@@]1(C)O[C@@H]21"
measure_name = "TGI"
result_value = 9.67


Give TGI for each of the items listed below.
1. CC1CC[C@@]2(OC1)O[C@H]1C[C@H]3[C@@H]4CC[C@H]5C[C@@H](OC6OC(CO)C(OC7OC(CO)C(OC8OC(CO)C(O)C(OC9OC(C)C(OC%10OC(C)C(O)C(O)C%10O)C(O)C9O)C8OC8OCC(O)C(O)C8O)C(O)C7O)C(O)C6O)CC[C@]5(C)[C@H]4CC(=O)[C@]3(C)[C@H]1[C@@H]2C (stereo not given in full)
2. O=C(Nc1nnc(-c2ccccc2)o1)C(SC(=S)N1CCOCC1)c1ccccc1 (stereo not given)
3. O=CN1N=C(c2ccc(Nc3ccnc4cc(Cl)ccc34)cc2)CC1c1ccccc1 (stereo not given)

1: 30.4; 2: 38.7; 3: 3.77

Value source: PubChem BioAssay (NCI)
